Just for reference, patent US20190062438A1 is where these values come from.

MEASURED ON: T1, human CD131 (human, UniProt P32927 17-897)
T1 sequence: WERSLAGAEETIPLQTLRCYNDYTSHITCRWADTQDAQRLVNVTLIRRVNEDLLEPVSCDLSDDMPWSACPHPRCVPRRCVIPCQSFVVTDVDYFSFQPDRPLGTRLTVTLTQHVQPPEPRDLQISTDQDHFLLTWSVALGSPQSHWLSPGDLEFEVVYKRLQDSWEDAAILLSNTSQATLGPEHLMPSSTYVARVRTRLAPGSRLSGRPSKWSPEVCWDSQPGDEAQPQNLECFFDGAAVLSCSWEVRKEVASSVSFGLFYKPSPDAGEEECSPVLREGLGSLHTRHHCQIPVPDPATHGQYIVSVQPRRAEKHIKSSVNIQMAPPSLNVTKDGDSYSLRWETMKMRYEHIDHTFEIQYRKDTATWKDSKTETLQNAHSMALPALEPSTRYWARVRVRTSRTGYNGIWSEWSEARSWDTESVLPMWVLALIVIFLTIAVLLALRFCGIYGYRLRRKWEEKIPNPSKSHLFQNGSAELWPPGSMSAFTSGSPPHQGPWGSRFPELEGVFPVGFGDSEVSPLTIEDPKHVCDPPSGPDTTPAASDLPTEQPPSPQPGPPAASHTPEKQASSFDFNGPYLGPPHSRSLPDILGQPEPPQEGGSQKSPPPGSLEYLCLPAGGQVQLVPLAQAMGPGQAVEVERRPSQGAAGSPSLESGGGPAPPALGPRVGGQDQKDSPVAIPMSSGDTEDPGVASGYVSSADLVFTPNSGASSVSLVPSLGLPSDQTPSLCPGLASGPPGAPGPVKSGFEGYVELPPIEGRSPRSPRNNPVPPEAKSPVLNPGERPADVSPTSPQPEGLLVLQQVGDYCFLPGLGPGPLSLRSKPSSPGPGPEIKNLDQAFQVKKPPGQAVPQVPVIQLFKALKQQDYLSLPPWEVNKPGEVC
EXPERIMENT DESCRIPTION: cell-based or functional assay
Each entry below carries its recorded IC50 GM-CSF, TF-1 proliferation.
Number only, in pM; omit the unit.

Here are 2 binders together with their reported answers.
Input 9A2-VR24.91 (antibody, V domains shown) VH: EVQLLESGGGLVQPGGSLRLSCAASGFTFPWYRVHWVRQAPGKGLEWVSSIHTHRQVTYYADSVKGRFTISRDNSKNTLYLQMNSLRAEDTAVYYCARFYDSFFDIWGQGTMVTVSS VL: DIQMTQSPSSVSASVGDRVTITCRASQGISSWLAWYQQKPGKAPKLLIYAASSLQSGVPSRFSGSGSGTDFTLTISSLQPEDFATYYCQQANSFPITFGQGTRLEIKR . Output IC50 GM-CSF, TF-1 proliferation: 500

# IC50 GM-CSF, TF-1 proliferation (binder: 9A2-VR39.21 (antibody, V domains shown) VH: EVQLLESGGGLVQPGGSLRLSCAASGFTFQHYHTVWVRQAPGKGLEWVSSINGRGRVTYYADSVKGRFTISRDNSKNTLYLQMNSLRAEDTAVYYCARFYDSFFDIWGQGTMVTVSS VL: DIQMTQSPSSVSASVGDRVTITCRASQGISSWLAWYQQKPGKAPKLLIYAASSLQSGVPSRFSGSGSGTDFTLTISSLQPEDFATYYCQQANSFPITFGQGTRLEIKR ) is 960

// next entry
# IC50 GM-CSF, TF-1 proliferation of 9A2-VR24 (antibody, V domains shown) VH: EVQLLESGGGLVQPGGSLRLSCAASGFTFPWYRVHWVRQAPGKGLEWVSSIRSSGGFTYYADSVKGRFTISRDNSKNTLYLQMNSLRAEDTAVYYCARFYDSFFDIWGQGTMVTVSS VL: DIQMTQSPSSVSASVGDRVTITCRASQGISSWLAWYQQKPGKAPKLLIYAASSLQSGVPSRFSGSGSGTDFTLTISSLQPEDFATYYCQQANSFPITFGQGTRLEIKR = 2500
